assay: in vitro; details: human, CC50 against the host cell line A549
Field: label. Allowed values: 1 (CC50 < 60 nM) or -1 (CC50 >= 60 nM).

Exercise: Would you kindly verify if CC50 of COc1cc2c(OC3O[C@H](CO)[C@H](O)[C@@H]4OC(C)(C)O[C@@H]34)c3c(c(-c4ccc5c(c4)OCO5)c2cc1OC)C(=O)OC3 (some centres unmarked) [Compound 32d] is strictly less than 60 nM?
Solution: -1

Exercise: Hello, I'm reviewing records and need to know if CC50 of C=CCOC(=O)O[C@H]1C(Oc2c3c(c(-c4ccc5c(c4)OCO5)c4cc(OC)c(OC)cc24)C(=O)OC3)OC[C@@H](O)[C@@H]1OC(C)=O (some centres unmarked) is below 60 nM. Could you check?
Solution: -1

Exercise: Take the compound COc1cc2c(OC3O[C@@H]4COC(C)(C)O[C@@H]4[C@H](O)[C@H]3O)c3c(c(-c4ccc5c(c4)OCO5)c2cc1OC)C(=O)OC3 (some centres unmarked) [Compound 32c] and say whether its CC50 is less than 60 nM.
Solution: -1

Exercise: State whether 60 nM exceeds CC50 recorded for C=CCOC(=O)O[C@@H]1COC(Oc2c3c(c(-c4ccc5c(c4)OCO5)c4cc(OC)c(OC)cc24)C(=O)OC3)[C@H](OC(=O)OCC=C)[C@H]1O (some centres unmarked) [Compound 29a] .
Solution: -1

Exercise: I wonder whether C=CCOC(=O)O[C@@H]1COC(Oc2c3c(c(-c4ccc5c(c4)OCO5)c4cc(OC)c(OC)cc24)C(=O)OC3)[C@H](OC(=O)OCC=C)[C@H]1OC(C)=O (some centres unmarked) has CC50 below 60 nM. Can you tell?
Solution: 1

Exercise: Does the reported CC50 of COc1cc2c(OC3OC[C@@H](O)[C@H](OCc4ccccc4)[C@H]3O)c3c(c(-c4ccc5c(c4)OCO5)c2cc1OC)C(=O)OC3 (stereo partly drawn) [Compound 31l, 3″-O-benzyl-7-O-β-D-xylosyldiphyllin] stay below 60 nM?
Solution: 1

Exercise: Consider the compound COc1cc2c(OC3O[C@H](CO)[C@@H](O)[C@H](O)[C@H]3O)c3c(c(-c4ccc5c(c4)OCO5)c2cc1OC)C(=O)OC3 (stereo partly drawn) [Compound 26f, 7-O-β-D-glucopyranosyldiphyllin] . Is its CC50 strictly less than 60 nM?
Solution: -1

Exercise: Determine whether this compound shows CC50 lower than 60 nM (ties excluded): COc1cc2c(OC3O[C@H](C)[C@@H](O)[C@H](OC(=O)CC#N)[C@H]3O)c3c(c(-c4ccc5c(c4)OCO5)c2cc1OC)C(=O)OC3 (stereo partly drawn) [Compound 31j, 3″-O-cyanoacetyl-7-O-β-D-patentiflorin A]
Solution: 1

Exercise: Would you kindly verify if CC50 of COc1cc2c(OC3O[C@H](CO)[C@@H]4OC(C)(C)O[C@@H]4[C@H]3O)c3c(c(-c4ccc5c(c4)OCO5)c2cc1OC)C(=O)OC3 (some centres unmarked) [Compound 32b] is strictly less than 60 nM?
Solution: 1

Exercise: Please indicate whether the reported CC50 of COc1cc2c(OC3O[C@H](CO)[C@H](O)[C@H](O)[C@H]3O)c3c(c(-c4ccc5c(c4)OCO5)c2cc1OC)C(=O)OC3 (stereo partly drawn) [Compound 26g, 7-O-β-D-galactopyranosyldiphyllin] is strictly below 60 nM.
Solution: -1
